Test system: E. faecalis
Type: cell-based
Test Context: E. faecalis EFS001
Reported Endpoint: MIC (µg/mL)
Only the number, expressed in µg/mL, is required.

Query block: Need MIC of PRIWKPKWRLPKR [MBI 11J01CN] , thanks.
Result block: 128

Query block: What do we get for ILRWPWWPWRRA [MBI 11H12CN] ?
Result block: 2

---

Tested on: microorganisms with acquired resistance
Protocol Summary: microbe, parasite or virus in culture
Type: cell-based
Test Context: peptide + Piperacillin; P. aeruginosa 7
Reported Endpoint: FIC
Output spec: single numeric token, no unit.

Some solved entries appear below for comparison.
- Item Sequence: "ILKKWPWWPWRR [MBI 11G7CN]"
  Study System: "microorganisms with acquired resistance"
  FIC: 0.50
- Item Sequence: "ILRWVWWVWRRK [MBI 11F4CN]"
  Study System: "microorganisms with acquired resistance"
  FIC: 0.38
- Item Sequence: "ILKKWVWWPWRRK [MBI 11F3CN]"
  Study System: "microorganisms with acquired resistance"
  FIC: 1.00
- Item Sequence: "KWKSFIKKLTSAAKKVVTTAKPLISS [MBI 26]"
  Study System: "microorganisms with acquired resistance"
  FIC: 0.25

Okay, now this sequence:
Query block: Need FIC of ILKKWPWWPWRRK [MBI 11E3CN] , thanks.
Result block: 1.00

---

Tested on: bacterial isolates
Protocol Summary: microbe, parasite or virus in culture
Assay type: cell-based
Test Context: peptide + Mupirocin; E. coli SBECO2
Reported Endpoint: FIC
Output spec: single numeric token, no unit.

Some solved entries appear below for comparison.
- Item Sequence: "ILKKFPFFPFRRK [MBI 11A1CN]"
  Study System: "bacterial isolates"
  FIC: 0.05
- Item Sequence: "ILKKWPWWPWRK [MBI 11B4CN]"
  Study System: "bacterial isolates"
  FIC: 0.09
- Item Sequence: "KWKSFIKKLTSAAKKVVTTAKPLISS [MBI 26]"
  Study System: "bacterial isolates"
  FIC: 0.16

Okay, now this sequence:
Query block: Need FIC of ILKKWPWWPWK [MBI 11G13CN] , thanks.
Result block: 0.16

---

Test system: microorganisms with acquired resistance
Protocol Summary: microbe, parasite or virus in culture
Type: cell-based
Test Context: peptide + Piperacillin; A. calcoaceticus 3
Reported Endpoint: FIC
Output spec: single numeric token, no unit.

- Item Sequence: "ILRRVJPWWPWRRR [MBI 11B9CN]"
  Study System: "microorganisms with acquired resistance"
  FIC: 0.75
- Item Sequence: "ILKKWPWWPWRR [MBI 11G7CN]"
  Study System: "microorganisms with acquired resistance"
  FIC: 0.63
- Item Sequence: "ILKKWVWWPWRRK [MBI 11F3CN]"
  Study System: "microorganisms with acquired resistance"
  FIC: 0.63
- Item Sequence: "ILKKWPWWPWRRK [MBI 11CN]"
  Study System: "microorganisms with acquired resistance"
  FIC: 1.00

Okay, now this sequence:
Query block: Need FIC of ILKKWPWWPWRRK [MBI 11E3CN] , thanks.
Result block: 0.75

---

Tested on: microorganisms with acquired resistance
Protocol Summary: microbe, parasite or virus in culture
Assay type: cell-based
Test Context: peptide + Tobramycin; A. baumannii ABI001
Reported Endpoint: FIC
Output spec: single numeric token, no unit.

Some solved entries appear below for comparison.
- Item Sequence: "ILKKWPWWPWRRK [MBI 11CN]"
  FIC: 0.50
- Item Sequence: "ILRRVJPWWPWRRR [MBI 11B9CN]"
  FIC: 0.50
- Item Sequence: "ILKKWVWWPWRRK [MBI 11F3CN]"
  FIC: 0.53

Query block: Need FIC of KKWWRRALQALKNGLPALIS [MBI 22A1] , thanks.
Result block: 0.75

Query block: What do we get for ILKKWPWWPWK [MBI 11G13CN] ?
Result block: 0.50

---

Test system: S. pneumoniae
Protocol Summary: Agarose dilution assay (MIC)
Assay type: cell-based
Test Context: agarose dilution; S. pneumoniae 406LE8
Reported Endpoint: Peptide MIC values

Some solved entries appear below for comparison.
- Item Sequence: "ILKKWPWWPWRRK [MBI 11CN]"
  Peptide MIC values: ">128 µg/mL"
- Item Sequence: "ILKKFPFFPFRRK [MBI 11A1CN]"
  Peptide MIC values: ">128 µg/mL"
- Item Sequence: "ILKKWPWWPWK [MBI 11G13CN]"
  Peptide MIC values: "128 µg/mL"
- Item Sequence: "ILKKWVWWVWRRK [MBI 11F1CN]"
  Peptide MIC values: "128 µg/mL"
- Item Sequence: "ILWPWWPWRRK [MBI 11B8CN]"
  Peptide MIC values: ">128 µg/mL"

Query block: Need Peptide MIC values of ILKKWPWWPWRK [MBI 11B4CN] , thanks.
Result block: 128 µg/mL

Query block: What do we get for ILPWKWPWWPWRR [MBI 10CN] ?
Result block: >128 µg/mL

Query block: What do we get for ILKKYPYYPYRRK [MBI 11A3CN] ?
Result block: >128 µg/mL

---

System: S. aureus
Format: cell-based
Test Context: S. aureus SA093
Reported Endpoint: MIC (µg/mL)
Only the number, expressed in µg/mL, is required.

Some solved entries appear below for comparison.
- Item Sequence: "ILRWPAWPWRRK [MBI 11H06CN]"
  Study System: "S. aureus"
  MIC [µg/mL]: 1
- Item Sequence: "LRWPWWPW [MBI 11G26CN]"
  Study System: "S. aureus"
  MIC [µg/mL]: 0.5
- Item Sequence: "ILRWPWWAWRRK [MBI 11H08CN]"
  Study System: "S. aureus"
  MIC [µg/mL]: 1
- Item Sequence: "ILRWPWWPWRAK [MBI 11H11CN]"
  Study System: "S. aureus"
  MIC [µg/mL]: 1
- Item Sequence: "ALRWPWWPWRRK [MBI 11H01CN]"
  Study System: "S. aureus"
  MIC [µg/mL]: 1

Query block: Provide value of MIC for this record tested with S. aureus: PRIWKPKWRLPKR [MBI 11J01CN]
Result block: 2

Query block: What do we get for WRWWKPKWRWPKW [MBI 11J02CN] ?
Result block: 1

---

Listing of entries alongside the reported Peptide MIC + Tobramycin.
Test system: bacterial isolates
Protocol Summary: microbe, parasite or virus in culture
Format: cell-based
Test Context: S. maltophilia SMA030
Only the number, expressed in µg/mL, is required.

Some solved entries appear below for comparison.
- Item Sequence: "KKWWRRALQALKNGLPALIS [MBI 22A1]"
  Peptide MIC + Tobramycin (µg/mL): 8
- Item Sequence: "ILKKWVWWPWRRK [MBI 11F3CN]"
  Peptide MIC + Tobramycin (µg/mL): 32
- Item Sequence: "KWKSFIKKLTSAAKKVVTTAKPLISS [MBI 26]"
  Peptide MIC + Tobramycin (µg/mL): 4
- Item Sequence: "ILKKWPWWPWK [MBI 11G13CN]"
  Peptide MIC + Tobramycin (µg/mL): 0.125
- Item Sequence: "KWKSFIKKLTSAAKKVLTTGLPALIS [MBI 29A3]"
  Peptide MIC + Tobramycin (µg/mL): 4

Okay, now this sequence:
Query block: Need Peptide MIC + Tobramycin of ILKKFPFFPFRRK [MBI 11A1CN] , thanks.
Result block: 64

---

Tested on: S. maltophilia
Format: cell-based
Test Context: S. maltophilia SMA002
Listing of entries alongside the reported MIC.
Only the number, expressed in µg/mL, is required.

Some solved entries appear below for comparison.
- Item Sequence: "ILRWWVWWVWWRRK [MBI 11F6CN]"
  Endpoint Unit: "µg/mL"
  MIC: 64
- Item Sequence: "ILAWPWWPWRRK [MBI 11H03CN]"
  Endpoint Unit: "µg/mL"
  MIC: 64
- Item Sequence: "ILKKWPWWPWRRK [MBI 11ACN]"
  Endpoint Unit: "µg/mL"
  MIC: 64

Okay, now this sequence:
Query block: Need MIC of ILKKWPNNPNRRK [MBI 11CNW1] , thanks.
Result block: 32

---

Test system: bacterial isolates
Protocol Summary: microbe, parasite or virus in culture
Format: cell-based
Test Context: A. baumannii ABI001
Reported Endpoint: Tobramycin MIC + Peptide (µg/mL)
Only the number, expressed in µg/mL, is required.

Some solved entries appear below for comparison.
- Item Sequence: "ILKKWPWWPWRRK [MBI 11CN]"
  Tobramycin MIC + Peptide (µg/mL): 4
- Item Sequence: "ILKKWPWWPWK [MBI 11G13CN]"
  Tobramycin MIC + Peptide (µg/mL): 4
- Item Sequence: "ILRRVJPWWPWRRR [MBI 11B9CN]"
  Tobramycin MIC + Peptide (µg/mL): 4

Okay, now this sequence:
Query block: Need Tobramycin MIC + Peptide of ILKKWVWWPWRRK [MBI 11F3CN] , thanks.
Result block: 0.5
